Biological target: Microsomal triglyceride transfer protein (MTP) from bovine liver (Bos taurus)
Sequence (P55156 12-887): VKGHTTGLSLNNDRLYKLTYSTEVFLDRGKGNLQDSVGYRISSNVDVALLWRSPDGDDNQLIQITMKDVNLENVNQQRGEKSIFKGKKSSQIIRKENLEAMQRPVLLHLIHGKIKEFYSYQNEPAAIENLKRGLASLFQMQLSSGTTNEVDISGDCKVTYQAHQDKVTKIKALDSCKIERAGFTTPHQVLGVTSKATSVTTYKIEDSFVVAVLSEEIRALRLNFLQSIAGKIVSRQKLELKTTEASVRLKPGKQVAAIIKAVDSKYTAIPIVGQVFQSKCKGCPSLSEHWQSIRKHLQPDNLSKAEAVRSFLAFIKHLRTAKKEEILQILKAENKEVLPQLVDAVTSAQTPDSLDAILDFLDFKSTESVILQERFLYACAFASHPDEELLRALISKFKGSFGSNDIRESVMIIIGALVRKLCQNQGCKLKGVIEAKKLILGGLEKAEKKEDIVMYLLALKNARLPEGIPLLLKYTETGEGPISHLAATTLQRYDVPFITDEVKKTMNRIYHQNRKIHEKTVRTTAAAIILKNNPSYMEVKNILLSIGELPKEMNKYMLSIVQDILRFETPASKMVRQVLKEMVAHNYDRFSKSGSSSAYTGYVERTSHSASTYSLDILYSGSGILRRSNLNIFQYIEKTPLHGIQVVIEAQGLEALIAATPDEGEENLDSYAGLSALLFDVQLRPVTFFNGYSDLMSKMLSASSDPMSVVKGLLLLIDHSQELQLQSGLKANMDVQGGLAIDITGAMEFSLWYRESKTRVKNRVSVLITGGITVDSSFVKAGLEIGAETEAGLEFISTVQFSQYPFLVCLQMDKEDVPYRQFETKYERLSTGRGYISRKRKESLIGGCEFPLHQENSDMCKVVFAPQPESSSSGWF
Sequence (P05307 21-510 partner): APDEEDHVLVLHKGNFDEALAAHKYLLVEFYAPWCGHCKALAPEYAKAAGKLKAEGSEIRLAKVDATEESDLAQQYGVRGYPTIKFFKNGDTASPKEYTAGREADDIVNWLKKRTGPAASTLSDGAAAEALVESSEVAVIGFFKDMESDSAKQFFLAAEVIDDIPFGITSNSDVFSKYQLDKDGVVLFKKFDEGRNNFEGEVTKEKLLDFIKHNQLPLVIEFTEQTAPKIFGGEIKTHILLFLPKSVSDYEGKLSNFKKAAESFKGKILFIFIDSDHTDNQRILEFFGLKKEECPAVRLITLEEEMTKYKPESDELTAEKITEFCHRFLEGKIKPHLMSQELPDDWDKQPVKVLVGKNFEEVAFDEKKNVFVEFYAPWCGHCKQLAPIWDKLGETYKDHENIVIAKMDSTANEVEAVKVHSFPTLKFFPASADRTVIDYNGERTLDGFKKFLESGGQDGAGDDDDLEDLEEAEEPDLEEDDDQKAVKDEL
pIC50: −log10 of the molar value.
Here the recorded pIC50 is given for each entry.

Some molecules with recorded pIC50:
Looking up CCOC(=O)C(CCC(=O)Oc1c(F)cc(NC(=O)c2ccccc2-c2ccc(C(F)(F)F)cc2)c(C(=O)N(C)C)c1F)(C(=O)OCC)c1cccs1 [Example 3-20] , I found its pIC50 recorded as > 8.00

Given item CCOC(=O)C(COC(=O)Oc1ccc(NC(=O)c2ccccc2-c2ccc(C(F)(F)F)cc2)c(C(=O)N(C)C)c1Cl)(C(=O)OCC)c1ccccc1 [Example 2-22] , the value recorded as its pIC50 is > 8.00

Measured pIC50, CCOC(=O)C(COC(=O)Oc1ccc(NC(=O)c2ccc(C)nc2-c2ccc(C(F)(F)F)cc2)c(C(=O)N(C)C)c1)(C(=O)OCC)c1ccccc1 [Example 2-19] : > 8.00

***
// pIC50 value for CCOC(=O)C(COC(=O)Oc1c(F)cc(NC(=O)c2ccc(C)nc2-c2ccc(C(F)(F)F)cc2)c(C(=O)N(C)C)c1F)(C(=O)OCC)c1cccs1 [Example 2-30] : > 8.00

The molecule listed as CCN(C)C(=O)C(COC(=O)Oc1c(F)cc(NC(=O)c2ccccc2-c2ccc(C(F)(F)F)cc2)c(C(=O)N(C)C)c1F)(C(=O)N(C)CC)c1ccccc1 [Example 2-31] shows pIC50 equal to 7.00 to 8.00

Briefly, pIC50 measured for CCOC(=O)C(COC(=O)Oc1c(F)cc(NC(=O)c2ccccc2-c2ccc(C(F)(F)F)cc2)c(C(=O)N2CCC(O)CC2)c1F)(C(=O)OCC)c1cccs1 [Example 2-47] : 6.00 to 7.00

Source: patent US7432392B2
